All values here come from patent US9458153B2.

# Test system: HBsAg
# ASSAY REMARKS: HBsAg assay (chemiluminescence immunoassay of secreted HBsAg in HepG2.2.15 culture supernatant)
# Assay type: cell-based, HBV
# CONDITION DETAILS: Hepatitis B virus, HepG2.2.15, HBsAg secretion reduced by 50% vs no drug control; HepG2.2.15 cells; CLIA kit
The label MET is reserved for IC50 strictly under 1000 nM; NOT MET covers values equal to or above it.

Record excerpt, results attached:
COMPOUND: CC1Cc2cc(N(C)Cc3ccccc3)ccc2-c2cc(=O)c(C(=O)O)cn21 (stereo not drawn)
TARGET OR SYSTEM: HBsAg
LABEL: NOT MET
--
COMPOUND: CCOc1cc2c(cc1O)-c1cc(=O)c(C(=O)O)cn1C(C)C2 (stereo not drawn)
TARGET OR SYSTEM: HBsAg
LABEL: NOT MET
--
COMPOUND: CCC1Cc2cc(C#N)c(OC)cc2-c2cc(=O)c(C(=O)O)cn21 (stereo not drawn)
TARGET OR SYSTEM: HBsAg
LABEL: MET
--
COMPOUND: CCC1Cc2cc(OCCOCCOC)c(OC)cc2-c2cc(=O)c(C(=O)O)cn21 (stereo not drawn)
TARGET OR SYSTEM: HBsAg
LABEL: MET
--
COMPOUND: CCC1Cc2cc(OC)c(OC)cc2-c2cc(=O)c(C(=O)O)cn21 (stereo not drawn)
TARGET OR SYSTEM: HBsAg
LABEL: MET
--
COMPOUND: CC1Cc2cccc(Br)c2-c2cc(=O)c(C(=O)O)cn21 (stereo not drawn)
TARGET OR SYSTEM: HBsAg
LABEL: NOT MET
--
COMPOUND: CCC1Cc2cc(OCCS(C)(=O)=O)c(OC)cc2-c2cc(=O)c(C(=O)O)cn21 (stereo not drawn)
TARGET OR SYSTEM: HBsAg
LABEL: NOT MET
--
COMPOUND: COCCOc1cc2c(cc1F)-c1cc(=O)c(C(=O)O)cn1C(C(C)C)C2 (stereo not drawn)
TARGET OR SYSTEM: HBsAg
LABEL: MET

For this compound, is IC50 lower than 1000 nM? COc1cc2c(cc1OCCC(F)F)CC(C(C)(C)C)n1cc(C(=O)O)c(=O)cc1-2 (stereo not drawn) MET

----------
# Test system: HBsAg
# ASSAY REMARKS: HBsAg assay (chemiluminescence immunoassay of secreted HBsAg in HepG2.2.15 culture supernatant)
# Format: cell-based, HBV
# CONDITION DETAILS: Hepatitis B virus, HepG2.2.15, HBsAg secretion reduced by 50% vs no drug control; HepG2.2.15 cells; CLIA kit
Could you please report measured pIC50 for the items listed next?
One number for each entry, as −log10 of the molar value.

Sample records with pIC50:
COMPOUND: C=CC(F)(F)Oc1cc2c(cc1OC)-c1cc(=O)c(C(=O)O)cn1C(C(C)(C)C)C2 (stereo not shown)
TARGET OR SYSTEM: HBsAg
PARAMETER: pIC50
MEASURED NUMBER: 7.80
--
COMPOUND: CC[C@H]1Cc2cc(OC)c(OC)cc2-c2cc(=O)c(C(=O)O)cn21
TARGET OR SYSTEM: HBsAg
PARAMETER: pIC50
MEASURED NUMBER: 4.92
--
COMPOUND: COc1cc2c(cc1OC)-c1cc(=O)c(C(=O)O)cn1C(CC(F)(F)F)C2 (stereo not shown)
TARGET OR SYSTEM: HBsAg
PARAMETER: pIC50
MEASURED NUMBER: 6.64

Request body: readout pIC50, system HBsAg, query COc1cc2c(cc1OCC(F)(F)CO)CC(C(C)(C)C)n1cc(C(=O)O)c(=O)cc1-2 (stereo not shown) . Return the value. 8.15

----------
# Tested on: HBsAg
# ASSAY REMARKS: HBsAg assay (chemiluminescence immunoassay of secreted HBsAg in HepG2.2.15 culture supernatant)
# Assay type: cell-based, HBV
# CONDITION DETAILS: Hepatitis B virus, HepG2.2.15, HBsAg secretion reduced by 50% vs no drug control; HepG2.2.15 cells; CLIA kit
Could you please report measured IC50 for the items listed next?
Give bare numbers, in nM.

// each compound listed below needs its IC50
1. CCCC1Cc2cc(OC)c(OC)cc2-c2cc(=O)c(C(=O)O)cn21 (stereo not drawn)
2. COc1cc2c(cc1OCCCO)CC(C(C)C)n1cc(C(=O)O)c(=O)cc1-2 (stereo not drawn)

1. 49
2. 30

----------
# System: HBsAg
# ASSAY REMARKS: HBsAg assay (chemiluminescence immunoassay of secreted HBsAg in HepG2.2.15 culture supernatant)
# Format: cell-based, HBV
# CONDITION DETAILS: Hepatitis B virus, HepG2.2.15, HBsAg secretion reduced by 50% vs no drug control; HepG2.2.15 cells; CLIA kit
pIC50: −log10 of the molar value.
Label yes (1) when pIC50 >= 7; otherwise no (0).

Record excerpt, results attached:
COMPOUND: CCCc1cc2c(cc1OC)-c1cc(=O)c(C(=O)O)cn1C(CC)C2 (stereo not shown)
LABEL: no (0)
--
COMPOUND: COc1cc2c(cc1OCCCn1cncn1)CC(C(C)(C)C)n1cc(C(=O)O)c(=O)cc1-2 (stereo not shown)
LABEL: yes (1)
--
COMPOUND: COc1cc2c(cc1OCCCn1cccn1)CC(C(C)(C)C)n1cc(C(=O)O)c(=O)cc1-2 (stereo not shown)
LABEL: yes (1)
--
COMPOUND: CC[C@@H]1[C@H](C)c2cc(OCCOC)c(Cl)cc2-c2cc(=O)c(C(=O)O)cn21 (relative stereo) [Example 212B]
LABEL: yes (1)
--
COMPOUND: COCCCOc1cc2c(cc1F)-c1cc(=O)c(C(=O)O)cn1C(C(C)C)C2 (stereo not shown)
LABEL: yes (1)
--
COMPOUND: COc1cc2c(cc1OCCCCCNS(C)(=O)=O)CC(C(C)(C)C)n1cc(C(=O)O)c(=O)cc1-2 (stereo not shown)
LABEL: yes (1)
--
COMPOUND: C[C@@H]1Cc2cc(Br)ccc2-c2cc(=O)c(C(=O)O)cn21
LABEL: no (0)
--
COMPOUND: CCC1Cc2cc(OCCN3CCOCC3)c(OC)cc2-c2cc(=O)c(C(=O)O)cn21 (stereo not shown)
LABEL: no (0)

Does pIC50 meet or surpass 7 for COc1cc2c(cc1OCCCCO)CC(C(C)(C)C)n1cc(C(=O)O)c(=O)cc1-2 (stereo not shown) ? yes (1)

Does pIC50 meet or surpass 7 for CCCOc1cc2c(cc1OC)CC(C)n1cc(C(=O)O)c(=O)cc1-2 (stereo not shown) ? no (0)

Does pIC50 meet or surpass 7 for CCC1Cc2cc(OCC3(C#N)CC3)c(OC)cc2-c2cc(=O)c(C(=O)O)cn21 (stereo not shown) ? no (0)
